Data credit: ChEMBL document CHEMBL3739255

test description: Volume of distribution at steady state in rat at 2 mg/kg, po and 0.5 mg/kg, iv administered as single dose
Assay type: ADME, organism-based
test settings: in vivo, read-out: Vdss
measure name: Vd (L/kg)

[
  {
    "structure smiles string": "COC[C@H](O)Cn1c(=O)cnn(-c2ccc(C)c(NC(=O)C3=CN(C)C(=O)C[C@H]3c3ccc(F)cc3)c2)c1=O",
    "Vd [L/kg]": 1.2
  }
]

A. Cc1cc(F)c(-c2ccnn(C)c2=O)cc1NC(=O)C1=CN(C)C(=O)C[C@H]1c1ccc(F)cc1
B. Cc1cc(Cl)c(OCCO)cc1NC(=O)C1=CNC(=O)C[C@H]1c1ccc(F)cc1
I'd appreciate it if you could identify which of A and B has the greater Vd. Answer by quoting the chosen item's label. B

----------
system tested: P2X purinoceptor 7 (Homo sapiens)
Sequence (Q99572 whole entry): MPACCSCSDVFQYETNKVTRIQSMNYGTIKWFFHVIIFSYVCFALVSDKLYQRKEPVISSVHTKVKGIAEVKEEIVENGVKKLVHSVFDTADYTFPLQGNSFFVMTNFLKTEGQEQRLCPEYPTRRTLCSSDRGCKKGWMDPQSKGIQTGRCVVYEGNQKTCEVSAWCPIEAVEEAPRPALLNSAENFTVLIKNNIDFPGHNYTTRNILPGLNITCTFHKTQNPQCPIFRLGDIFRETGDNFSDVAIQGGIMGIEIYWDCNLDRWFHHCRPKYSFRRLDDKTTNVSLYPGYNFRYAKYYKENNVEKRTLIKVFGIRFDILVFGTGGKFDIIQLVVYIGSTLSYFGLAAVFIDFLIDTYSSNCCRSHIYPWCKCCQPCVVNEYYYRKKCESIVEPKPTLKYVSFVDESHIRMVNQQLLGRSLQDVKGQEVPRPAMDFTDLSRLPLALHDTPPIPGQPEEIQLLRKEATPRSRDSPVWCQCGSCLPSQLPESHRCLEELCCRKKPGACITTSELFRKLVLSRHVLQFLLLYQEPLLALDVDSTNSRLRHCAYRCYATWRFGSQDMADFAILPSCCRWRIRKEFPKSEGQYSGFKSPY
test description: Antagonist activity at human P2X7R expressed in BzATP-stimulated human 1321N1 cells incubated for 20 mins followed by BzATP stimulation measured every 1 sec for 60 secs followed by 3 sec intervals for 4 mins by FLIPR Ca2+ assay in presence of ionomycin
Type: cell-based
pIC50: −log10 of the molar value.
measure name: pIC50

Consider the reported pIC50 for these molecules:
[
  {
    "molecule": "COc1cc(Br)c(CC(=O)N2C=CC(=O)CC2c2ccccc2)cc1OC (racemic)",
    "pIC50": 7.04
  },
  {
    "molecule": "COC[C@H](O)Cn1c(=O)cnn(-c2ccc(C)c(NC(=O)C3=CN(C)C(=O)C[C@H]3c3ccc(F)cc3)c2)c1=O",
    "pIC50": 7.52
  },
  {
    "molecule": "COc1cc(NC(=O)N2C=CC(=O)C[C@H]2c2ccc(F)cc2)c(Br)cc1Cl",
    "pIC50": 7.43
  },
  {
    "molecule": "COc1cc(Br)c(NC(=O)C2=CNC(=O)C[C@H]2c2cccc(F)c2)cc1OC",
    "pIC50": 8.05
  }
]

1. Cc1cc(Cl)c(OCCO)cc1NC(=O)N1C=CC(=O)C[C@H]1c1ccc(F)cc1
2. COc1cc(Br)c(NC(=O)N2C=CC(=O)CC2c2ccccc2)cc1OC (racemic)
3. Cc1cc(Cl)c(OCCO)cc1NC(=O)C1=CNC(=O)C[C@H]1c1ccc(F)cc1
4. COc1cc(I)c(CC(=O)N2C=CC(=O)CC2c2ccccc2)cc1OC (racemic)
Reorder the items by pIC50, least to greatest. Kindly provide the labels arranged according to the requested ordering. 4, 2, 3, 1
(4: 6.98, 2: 7.41, 3: 7.64, 1: 8.05)
